# measured on: CDK7/Cyclin H/MAT1 kinase (Homo sapiens (Human), UniProt P50613)
# Sequence (P50613 whole entry): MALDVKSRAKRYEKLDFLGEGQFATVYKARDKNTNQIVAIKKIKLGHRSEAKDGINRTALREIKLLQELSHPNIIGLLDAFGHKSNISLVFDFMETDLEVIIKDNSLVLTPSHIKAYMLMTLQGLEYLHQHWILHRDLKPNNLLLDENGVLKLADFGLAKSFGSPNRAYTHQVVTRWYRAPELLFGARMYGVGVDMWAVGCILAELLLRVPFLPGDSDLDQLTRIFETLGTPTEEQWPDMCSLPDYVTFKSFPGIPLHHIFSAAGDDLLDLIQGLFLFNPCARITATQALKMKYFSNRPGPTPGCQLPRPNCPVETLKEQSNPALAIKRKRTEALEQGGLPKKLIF
# Sequence (P51946 whole entry partner): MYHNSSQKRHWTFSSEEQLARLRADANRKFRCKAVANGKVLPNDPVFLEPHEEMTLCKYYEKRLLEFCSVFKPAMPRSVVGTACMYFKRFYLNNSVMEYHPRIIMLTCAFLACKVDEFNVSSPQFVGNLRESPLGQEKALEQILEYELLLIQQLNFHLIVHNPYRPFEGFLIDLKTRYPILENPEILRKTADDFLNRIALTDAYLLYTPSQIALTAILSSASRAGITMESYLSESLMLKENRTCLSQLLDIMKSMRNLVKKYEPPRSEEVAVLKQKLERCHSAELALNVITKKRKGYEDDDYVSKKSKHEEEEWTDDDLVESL
# Sequence (P51948 whole entry partner): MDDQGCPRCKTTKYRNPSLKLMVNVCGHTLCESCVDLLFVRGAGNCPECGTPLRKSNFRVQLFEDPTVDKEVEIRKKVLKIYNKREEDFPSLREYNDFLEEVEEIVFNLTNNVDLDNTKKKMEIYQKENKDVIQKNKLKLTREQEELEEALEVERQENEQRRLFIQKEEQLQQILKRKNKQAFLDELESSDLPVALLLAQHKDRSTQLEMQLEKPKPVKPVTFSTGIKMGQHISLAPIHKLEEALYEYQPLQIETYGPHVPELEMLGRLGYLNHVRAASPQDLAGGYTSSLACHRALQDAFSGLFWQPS
# experimental details: Enzyme activity test, mobility shift assay (Table 1)
# Format: biochemical
# run parameters: 2 mM ATP; pre-incubated 0 and 60 minutes
The entries below come with measured IC50 values attached.

compound: COC(=O)Nc1ccc2c(-c3nc(N[C@H]4CCCN(C)C4)ncc3C(F)(F)F)c[nH]c2c1C1CC1
IC50: < 50 nM
//
compound: COC(=O)N(C)c1ccc2c(-c3nc(N[C@H]4CCCNC4)ncc3C(F)(F)F)c[nH]c2c1C(F)(F)F
IC50: < 50 nM
//
compound: COC(=O)Nc1ccc2c(-c3nc(N[C@H]4CCC[C@@H](N)C4)ncc3C(F)(F)F)c[nH]c2c1Br
IC50: 50 to 500 nM
//
compound: COC(=O)N(C)c1ccc2c(-c3nc(N[C@H]4CCCNC4)ncc3C(F)(F)F)c[nH]c2c1Br
IC50: < 50 nM
//
compound: COC(=O)Nc1ccc2c(-c3nc(N[C@H]4CCCNC4)ncc3C(F)(F)F)c[nH]c2c1[S+]([O-])C(C)C (stereo partly drawn)
IC50: < 50 nM
//
compound: COC(=O)Nc1ccc2c(-c3nc(N[C@H]4CCC5(CC5)NC4)ncc3C(F)(F)F)c[nH]c2c1C(F)F
IC50: < 50 nM

Numbers sourced from patent US20230295130A1.
